- experimentalSystem: SARS-CoV-2 Main Protease (SARS-CoV-2) (UniProt P0DTD1)
pIC50: −log10 of the molar value.
The threshold is inclusive: pIC50 of exactly 5 counts as Condition met; values below receive Condition not met.

INSERT INTO assay_data (compound, experimentalsystem, grouplabel) VALUES
  ('CC(C)(C)OC(=O)N1CC(NC(=O)C(c2cccnc2)N(C(=O)c2cocn2)c2ccc(C(C)(C)C)cc2)C1 (stereo not given)', 'SARS-CoV-2 Main Protease (SARS-CoV-2) (UniProt P0DTD1)', 'Condition met'),
  ('O=C(NCCc1cccc(F)c1)C(c1cccnc1)N(C(=O)c1cnc[nH]1)C1CCC2(CCO2)CC1 (stereo not given)', 'SARS-CoV-2 Main Protease (SARS-CoV-2) (UniProt P0DTD1)', 'Condition not met'),
  ('COc1ccc(CNc2cc(Cl)cc(CC(=O)Nc3cncc4ccccc34)c2)c(OC)c1', 'SARS-CoV-2 Main Protease (SARS-CoV-2) (UniProt P0DTD1)', 'Condition met'),
  ('Cn1cc(-c2cc(C(=O)N(c3ccc(C(C)(C)C)cc3)C(C(=O)NCCc3cccc(F)c3)c3cccnc3)on2)cn1 (stereo not given)', 'SARS-CoV-2 Main Protease (SARS-CoV-2) (UniProt P0DTD1)', 'Condition not met'),
  ('Cc1ccnc(N)c1NC(=O)C1CCOc2ccc(Cl)cc21 (stereo not given)', 'SARS-CoV-2 Main Protease (SARS-CoV-2) (UniProt P0DTD1)', 'Condition not met'),
  ('Cc1cc(C)nc(C#N)n1', 'SARS-CoV-2 Main Protease (SARS-CoV-2) (UniProt P0DTD1)', 'Condition not met'),
  ('Cc1ccc(-c2ccc(C(=O)N3CC[C@H](N)C3)c(F)c2)cc1 (stereo in doubt)', 'SARS-CoV-2 Main Protease (SARS-CoV-2) (UniProt P0DTD1)', 'Condition not met'),
  ('Cc1c(Cl)cccc1S(=O)(=O)N(Cc1ccc(F)cc1)c1ccc2[nH]c(=O)[nH]c2c1', 'SARS-CoV-2 Main Protease (SARS-CoV-2) (UniProt P0DTD1)', 'Condition not met'),
  ('CC(C)(C)c1ccc(N(C(=O)c2ccc(O)c(=O)o2)C(C(=O)NCCc2cccc(F)c2)c2cccnc2)cc1 (stereo not given)', 'SARS-CoV-2 Main Protease (SARS-CoV-2) (UniProt P0DTD1)', 'Condition not met'),
  ('Cc1cc(N2CCC(C)N(Cc3ccccc3)CC2)n2ncnc2n1 (stereo not given)', 'SARS-CoV-2 Main Protease (SARS-CoV-2) (UniProt P0DTD1)', 'Condition not met'),
  ('O=C(Cc1cc(Cl)cc(Nc2ccc(I)cc2F)c1)Nc1cncc2ccccc12', 'SARS-CoV-2 Main Protease (SARS-CoV-2) (UniProt P0DTD1)', 'Condition met'),
  ('CCOC(=O)c1cc(-c2ccccc2)sc1NC(=O)Cc1csc(-c2ccccc2)n1', 'SARS-CoV-2 Main Protease (SARS-CoV-2) (UniProt P0DTD1)', 'Condition met'),
  ('Cc1cc(Nc2ccc3nc(C)sc3c2)n2ncnc2n1', 'SARS-CoV-2 Main Protease (SARS-CoV-2) (UniProt P0DTD1)', 'Condition not met'),
  ('Cn1cc(CN(C(=O)Cn2nnc3ccccc32)c2ccc(N3CCCCC3)cc2)cn1', 'SARS-CoV-2 Main Protease (SARS-CoV-2) (UniProt P0DTD1)', 'Condition not met'),
  ('O=C(Nc1cncc2ccccc12)C1COCc2c(Cl)cccc21 (stereo not given)', 'SARS-CoV-2 Main Protease (SARS-CoV-2) (UniProt P0DTD1)', 'Condition met'),
  ('O=C(Nc1ccccc1)[C@H]1CN(C(=O)CCl)CCN1S(=O)(=O)c1ccsc1 (stereo in doubt)', 'SARS-CoV-2 Main Protease (SARS-CoV-2) (UniProt P0DTD1)', 'Condition met'),
  ('COc1c(C(=O)N(c2ccc(C(C)(C)C)cc2)C(C(=O)NCCc2cccc(F)c2)c2cccnc2)[nH]c(=O)[nH]c1=O (stereo not given)', 'SARS-CoV-2 Main Protease (SARS-CoV-2) (UniProt P0DTD1)', 'Condition not met'),
  ('CC(C)(C)c1ccc(N(C(=O)c2nc3cnccc3s2)C(C(=O)NCCc2cccc(F)c2)c2cccnc2)cc1 (stereo not given)', 'SARS-CoV-2 Main Protease (SARS-CoV-2) (UniProt P0DTD1)', 'Condition not met'),
  ('CC1(CS(=O)(=O)N2Cc3ccc(Cl)cc3C(C(=O)Nc3cncc4ccccc34)C2)CC1 (stereo not given)', 'SARS-CoV-2 Main Protease (SARS-CoV-2) (UniProt P0DTD1)', 'Condition met'),
  ('Cc1ccc(N(C(=O)c2cocn2)C(C(=O)NCCc2cccc(F)c2)c2cccnc2)cc1 (stereo not given)', 'SARS-CoV-2 Main Protease (SARS-CoV-2) (UniProt P0DTD1)', 'Condition not met'),
  ('C[C@]1(C(=O)Nc2cncc3c2CCCC3)CNS(=O)(=O)c2ccc(Cl)cc21 (stereo in doubt)', 'SARS-CoV-2 Main Protease (SARS-CoV-2) (UniProt P0DTD1)', 'Condition met'),
  ('COc1ccc([C@H](C)Nc2cc(Cl)cc(CC(=O)Nc3cncc4ccccc34)c2)cc1 (stereo in doubt)', 'SARS-CoV-2 Main Protease (SARS-CoV-2) (UniProt P0DTD1)', 'Condition met'),
  ('COc1ccccc1OCCNC(=O)C1CC(=O)Nc2ccccc21 (stereo not given)', 'SARS-CoV-2 Main Protease (SARS-CoV-2) (UniProt P0DTD1)', 'Condition not met'),
  ('Cc1sc2ncnc(N3CCc4c(ncn4C4CC4)C3)c2c1C', 'SARS-CoV-2 Main Protease (SARS-CoV-2) (UniProt P0DTD1)', 'Condition not met'),
  ('CC(C)(C)c1ccc(N(C(=O)c2cocn2)C(C(=O)NCCc2cnc[nH]2)c2cccnc2)cc1 (stereo not given)', 'SARS-CoV-2 Main Protease (SARS-CoV-2) (UniProt P0DTD1)', 'Condition not met'),
  ('Cc1ccncc1NC(=O)Cc1cc(Cl)cc(S(N)(=O)=O)c1', 'SARS-CoV-2 Main Protease (SARS-CoV-2) (UniProt P0DTD1)', 'Condition not met'),
  ('Cc1cn2c(CNC(=O)c3cnn4ccccc34)c(C)nc2s1', 'SARS-CoV-2 Main Protease (SARS-CoV-2) (UniProt P0DTD1)', 'Condition not met');

---

pIC50: −log10 of the molar value.
Target or system SARS-CoV-2 Main Protease (SARS-CoV-2) (UniProt P0DTD1): recorded pIC50 listed per item.
measuredMetric: pIC50

INSERT INTO results (compound, obsvalue) VALUES
  ('O=C(Cc1cccc(Cl)c1)Nc1[nH]nc2cc(F)ccc12', '< 4.00'),
  ('O=C(NNc1nc2cccnc2s1)c1ccc2ccncc2c1', '< 4.00'),
  ('CCS(=O)(=O)c1c(Cl)cccc1CNC(c1cccc(F)c1)C1CC1 (stereo not drawn)', '< 4.00');

---

- experimentalSystem: SARS-CoV-2 Main Protease (SARS-CoV-2) (UniProt P0DTD1)
pIC50: −log10 of the molar value.
Listing: pIC50 of selected compounds
measuredMetric: pIC50

INSERT INTO measurements (compound, obsvalue) VALUES
  ('Nc1nn(C(=O)C2CCOc3ccc(Cl)cc32)c2cc(F)ccc12 (centres undefined)', '< 4.00'),
  ('CC1=C[C@@H](c2c(O)cc(-c3cc4ccc(O)cc4o3)cc2O)[C@@H](C(=O)c2ccc(O)cc2O)[C@H](c2ccc(O)cc2O)C1 (stereo in doubt)', '< 4.00'),
  ('CCOC1CC2(C1)CC2N(C(=O)c1ccco1)C(C(=O)NCCc1cccc(F)c1)c1cccnc1 (centres undefined)', '< 4.00'),
  ('O=C1CCCN(S(=O)(=O)c2cccs2)CC1', '< 4.00'),
  ('O=C(Cn1ccc(=O)[nH]c1=O)OCc1ccc(-c2ccccc2)cc1', '< 4.00'),
  ('Cc1cccc2c(NC(=O)Cc3cccc(Cl)c3)cncc12', '< 4.00'),
  ('Cc1ccncc1NC(=O)Cc1cc(Cl)cc(-c2ncc[nH]2)c1', '< 4.00'),
  ('CC(C)(COP(=O)(O)OP(=O)(O)OC[C@H]1O[C@@H](n2cnc3c(N)ncnc32)[C@H](O)[C@@H]1OP(=O)(O)O)[C@@H](O)C(=O)NCCC(=O)NCCSC(=O)CCC(=O)O (stereo in doubt)', '< 4.00'),
  ('O=C(Cc1cc(Cl)cc(NCc2ccc(Br)cc2)c1)Nc1cncc2ccccc12', '< 4.00');

---

Target or system SARS-CoV-2 Main Protease (SARS-CoV-2) (UniProt P0DTD1): recorded IC50 listed per item.
measuredMetric: IC50 (µM)

INSERT INTO assay_data (molecule, experimentalsystem, censoringqualifier, obsvalue) VALUES
  ('O=C(Nc1cncc2cc(Cl)ccc12)C12CC(C1)Oc1ccc(Cl)cc12', 'SARS-CoV-2 Main Protease (SARS-CoV-2) (UniProt P0DTD1)', '>', 99.5),
  ('Cc1ccncc1NC(=O)CCc1cccc(Cl)c1', 'SARS-CoV-2 Main Protease (SARS-CoV-2) (UniProt P0DTD1)', '>', 99.5),
  ('CC(C)(C)c1ccc(N(C(=O)c2n[nH]c(=O)[nH]c2=O)C(C(=O)NCCc2cccc(F)c2)c2cccnc2)cc1 (stereo not drawn)', 'SARS-CoV-2 Main Protease (SARS-CoV-2) (UniProt P0DTD1)', '>', 99.5),
  ('CCCc1cc2c(cc1S(=O)(=O)N1CCN(c3cccc(Cl)c3Cl)CC1)OCO2', 'SARS-CoV-2 Main Protease (SARS-CoV-2) (UniProt P0DTD1)', '>', 99.5),
  ('COc1ccccc1OC1CN(C(=O)c2cc(=O)[nH]c3ccccc23)C1', 'SARS-CoV-2 Main Protease (SARS-CoV-2) (UniProt P0DTD1)', '>', 99.5),
  ('Cc1ccncc1NC(=O)[C@H](C)OC(F)F (stereo in doubt)', 'SARS-CoV-2 Main Protease (SARS-CoV-2) (UniProt P0DTD1)', '>', 99.5),
  ('CNCC1CCCN(C(=O)[C@@H](c2ccccc2)N2Cc3ccccc3C2=O)C1 (stereo in doubt)', 'SARS-CoV-2 Main Protease (SARS-CoV-2) (UniProt P0DTD1)', '>', 99.5),
  ('Cc1ccc(NC2=C(c3ccccc3)C(=O)N(Cc3cccnc3)C2=O)cc1Cl', 'SARS-CoV-2 Main Protease (SARS-CoV-2) (UniProt P0DTD1)', '>', 99.5),
  ('Cc1nc2ccc(NS(=O)(=O)c3cccc4nonc34)cc2o1', 'SARS-CoV-2 Main Protease (SARS-CoV-2) (UniProt P0DTD1)', '>', 99.5),
  ('Cc1nnc(C2CCN(C(=O)c3ccc(Br)cc3)CC2)[nH]1', 'SARS-CoV-2 Main Protease (SARS-CoV-2) (UniProt P0DTD1)', '>', 99.5),
  ('Cc1nc(CN2Cc3ccc(Cl)cc3C(C(=O)Nc3cncc4ccc(F)cc34)C2)cs1 (stereo not drawn)', 'SARS-CoV-2 Main Protease (SARS-CoV-2) (UniProt P0DTD1)', '=', 1.12),
  ('O=C(Cc1cc(Cl)cc(Nc2cccc(N3CCOCC3)c2)c1)Nc1cncc2ccccc12', 'SARS-CoV-2 Main Protease (SARS-CoV-2) (UniProt P0DTD1)', '=', 2.44),
  ('O=C(NCCCc1nc(=O)[nH][nH]1)C1(c2ccc(F)cc2F)CCC1', 'SARS-CoV-2 Main Protease (SARS-CoV-2) (UniProt P0DTD1)', '>', 99.5),
  ('CCN1CCN(c2ccc(Nc3cc(Cl)cc(CC(=O)Nc4cncc5ccccc45)c3)cc2)CC1', 'SARS-CoV-2 Main Protease (SARS-CoV-2) (UniProt P0DTD1)', '=', 4.3),
  ('Cc1cc(Nc2cc(Cl)cc(CC(=O)Nc3cncc4ccccc34)c2)c(F)cc1Br', 'SARS-CoV-2 Main Protease (SARS-CoV-2) (UniProt P0DTD1)', '=', 2.05),
  ('O=C(Cc1cc(Cl)cc(Nc2ccc(C(F)(F)F)cc2[N+](=O)[O-])c1)Nc1cncc2ccccc12', 'SARS-CoV-2 Main Protease (SARS-CoV-2) (UniProt P0DTD1)', '=', 2.24),
  ('O=c1c(O[C@@H]2O[C@H](CO)[C@H](O)[C@H](O)[C@H]2O)c(-c2ccc(O)c(O)c2)oc2cc(O)cc(O)c12 (stereo in doubt)', 'SARS-CoV-2 Main Protease (SARS-CoV-2) (UniProt P0DTD1)', '>', 99.5),
  ('CC(CNC(=O)c1cnc2ccccn12)Nc1nc2ccccc2o1 (stereo not drawn)', 'SARS-CoV-2 Main Protease (SARS-CoV-2) (UniProt P0DTD1)', '>', 99.5),
  ('O=C(Nc1cnc2ccccn12)C1CCOc2ccc(Cl)cc21 (stereo not drawn)', 'SARS-CoV-2 Main Protease (SARS-CoV-2) (UniProt P0DTD1)', '=', 3.26),
  ('O=C(Cc1cc(Cl)cc(Nc2cc(Br)cc(C(F)(F)F)c2)c1)Nc1cncc2ccccc12', 'SARS-CoV-2 Main Protease (SARS-CoV-2) (UniProt P0DTD1)', '=', 1.87),
  ('O=C(Cc1cc(Cl)cc(Nc2ccc(F)cc2Br)c1)Nc1cncc2ccccc12', 'SARS-CoV-2 Main Protease (SARS-CoV-2) (UniProt P0DTD1)', '=', 2.04),
  ('O=C(Nc1ccc(-c2nnc[nH]2)cc1)c1cccc(F)c1F', 'SARS-CoV-2 Main Protease (SARS-CoV-2) (UniProt P0DTD1)', '>', 99.5),
  ('O=C(Cc1cc(Cl)cc(NCc2ccc(Oc3ccccc3)cc2)c1)Nc1cncc2ccccc12', 'SARS-CoV-2 Main Protease (SARS-CoV-2) (UniProt P0DTD1)', '=', 5.82),
  ('N#CC1(CS(=O)(=O)N2Cc3ccc(Cl)cc3C(C(=O)Nc3cncc4ccc(F)cc34)C2)CC1 (stereo not drawn)', 'SARS-CoV-2 Main Protease (SARS-CoV-2) (UniProt P0DTD1)', '=', 0.137),
  ('Cc1cc2c(cc1S(=O)(=O)N1CCN(c3ccccc3)CC1)OCO2', 'SARS-CoV-2 Main Protease (SARS-CoV-2) (UniProt P0DTD1)', '>', 99.5),
  ('Cc1ccc(NC2=C(c3ccccc3)C(=O)N(Cc3cccnc3)C2=O)c(C)c1', 'SARS-CoV-2 Main Protease (SARS-CoV-2) (UniProt P0DTD1)', '>', 99.5),
  ('Cc1c(Cl)ccc2c1[C@H](C(=O)Nc1cncc3ccccc13)CCO2 (stereo in doubt)', 'SARS-CoV-2 Main Protease (SARS-CoV-2) (UniProt P0DTD1)', '=', 3.67),
  ('O=C(Cc1cccc(Cl)c1)NC1CC(=O)c2ccccc21 (stereo not drawn)', 'SARS-CoV-2 Main Protease (SARS-CoV-2) (UniProt P0DTD1)', '=', 53.8);
